Target: hGPR119 (Homo sapiens)
Construct: expressed in transfected cells; host or cells: CHO
Sequence (Q8TDV5 whole entry): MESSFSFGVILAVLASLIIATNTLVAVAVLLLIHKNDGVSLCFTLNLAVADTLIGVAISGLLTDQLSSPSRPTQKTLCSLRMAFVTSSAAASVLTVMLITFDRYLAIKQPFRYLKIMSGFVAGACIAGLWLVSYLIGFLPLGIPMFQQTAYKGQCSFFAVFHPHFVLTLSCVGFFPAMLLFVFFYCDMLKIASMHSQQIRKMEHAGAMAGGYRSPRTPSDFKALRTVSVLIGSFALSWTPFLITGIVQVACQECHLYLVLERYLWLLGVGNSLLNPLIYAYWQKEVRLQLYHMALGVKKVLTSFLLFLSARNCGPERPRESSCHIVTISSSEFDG
Assay: In vitro cyclic AMP assay (Cisbio dynamic 2 HTRF kit) in CHO-hGPR119 cells
Type: cell-based
Conditions: 1 h, cAMP, compound at 1 μM, 60 min, read-out: Induction (% induction at 1 μM)
REPORTED METRIC: activation at 1 µM (%)

CC(C)c1noc(N2CCC(C(Oc3nc4ccc(-c5ccc(S(C)(=O)=O)cc5)nc4s3)C3CC3)CC2)n1 (stereo not shown)    48

(1) C[C@H](Oc1nc2ccc(-c3ccc(S(C)(=O)=O)nc3)nc2s1)C1CCN(c2ncc(Cl)cn2)CC1
(2) COCCNC(=O)c1ccc(-c2ccc3nc(OC(C)C4CCN(c5nc(C(C)C)no5)CC4)sc3n2)cc1 (stereo not shown)
I'm curious whether 1 or 2 has the smaller activation at 1 µM number. Which is it? Refer to your chosen item by its label in the answer.
2
(2: 16%, 1: 82%)

From: patent US10526345B2
